Tested on: MvaT
MEASUREMENT NOTES: PBM 8-mer E-score (mean of HK and ME arrays) (E-score (dimensionless, -0.5 to 0.5)); higher = stronger relative binding preference
Whole data set: some 33,000 sequences, median “E-score (dimensionless, -0.5 to 0.5)” near -0.058, cut for the highest 2% near 0.35. Only a selection was taken, and the highest values are over-represented in it overall.
Please use true whenever PBM 8-mer E-score is not below 0.3, and false whenever it is.

RESIDUE SEQUENCE | TARGET UNDER TEST | CLASS
AGTCCACT | MvaT | false
TAAATAAA | MvaT | true
CGAAAGTC | MvaT | false

Query string: Is the recorded value of PBM 8-mer E-score equal to or greater than 0.3 for this sequence? ATTATGTA
Result string: true

Query string: Is the recorded value of PBM 8-mer E-score equal to or greater than 0.3 for this sequence? CATATGTA
Result string: false

Query string: Is the recorded value of PBM 8-mer E-score equal to or greater than 0.3 for this sequence? ACGAGGCT
Result string: false

Query string: Is the recorded value of PBM 8-mer E-score equal to or greater than 0.3 for this sequence? AGTTATTA
Result string: true

Query string: Is the recorded value of PBM 8-mer E-score equal to or greater than 0.3 for this sequence? GGGTTGAC
Result string: false

Query string: Is the recorded value of PBM 8-mer E-score equal to or greater than 0.3 for this sequence? AACTGACG
Result string: false

Query string: Is the recorded value of PBM 8-mer E-score equal to or greater than 0.3 for this sequence? CCCGGCCC
Result string: false

Query string: Is the recorded value of PBM 8-mer E-score equal to or greater than 0.3 for this sequence? CGGAGTAC
Result string: false

Query string: Is the recorded value of PBM 8-mer E-score equal to or greater than 0.3 for this sequence? ATCAGTGA
Result string: false

Query string: Is the recorded value of PBM 8-mer E-score equal to or greater than 0.3 for this sequence? AATATGTG
Result string: true

Query string: Is the recorded value of PBM 8-mer E-score equal to or greater than 0.3 for this sequence? ATTGAAAT
Result string: false

Query string: Is the recorded value of PBM 8-mer E-score equal to or greater than 0.3 for this sequence? GCGACTCC
Result string: false

Query string: Is the recorded value of PBM 8-mer E-score equal to or greater than 0.3 for this sequence? ATATACAT
Result string: true

Query string: Is the recorded value of PBM 8-mer E-score equal to or greater than 0.3 for this sequence? ACTATGTG
Result string: false

---

System: MvaT
MEASUREMENT NOTES: PBM 8-mer E-score (mean of HK and ME arrays) (E-score (dimensionless, -0.5 to 0.5)); higher = stronger relative binding preference
In all, about 33,000 sequences were measured (“E-score (dimensionless, -0.5 to 0.5)”: median about -0.058, highest 2% from about 0.35 on). The sample holds the highest values, similar sequences and a random draw of the others, so the mix is not that of the screen.
READOUT: PBM 8-mer E-score
Respond with the number and no other words.

Some sequences with recorded PBM 8-mer E-score:
RESIDUE SEQUENCE | PBM 8-mer E-score
AGAATTTA | 0.262
CCGGCCTA | -0.174
CTAATTTA | 0.389
ATGACTCA | -0.062
AATAACAC | 0.331

Query string: Reported PBM 8-mer E-score for GTTTAACA : what is it?
Result string: 0.281

Query string: Reported PBM 8-mer E-score for GTCTTCGA : what is it?
Result string: -0.0711

Query string: Reported PBM 8-mer E-score for CTAACTGA : what is it?
Result string: 0.0161
